Where these numbers come from: ChEMBL document CHEMBL1156251

Parameter IC50: see the listing below.
# assayed system: Lipopolysaccharide (LPS)
# test: Displacement of dansyl-PMB from LPS by isothermal titration calorimetry
Where a SMILES comes first, the peptide text is derived from it. Bridges are numbered along the chain shown (N, C = ends). [ ]: non-standard residue; d: D form. The star is where a group is joined. Octanoyl = CCCCCCCC(=O)*; Dab = NCC[C@H](N)C(=O)O
Entry rule: numbers only, all in µM.

CCCCCCCC(=O)N[C@@H](CCN)C(=O)N[C@H](C(=O)N[C@@H](CCN)C(=O)N[C@H]1CCNC(=O)[C@H]([C@@H](C)O)NC(=O)[C@H](CCN)NC(=O)[C@H](CCN)NC(=O)[C@H](C)NC(=O)[C@@H](C)NC(=O)[C@H](CCN)NC1=O)[C@@H](C)O	8
CCCCCCCC(=O)N[C@@H](CCN)C(=O)N[C@H](C(=O)N[C@@H](CCN)C(=O)N[C@H]1CCNC(=O)[C@H](C)NC(=O)[C@H](CCN)NC(=O)[C@H](CCN)NC(=O)[C@H](CC(C)C)NC(=O)[C@@H](Cc2ccccc2)NC(=O)[C@H](CCN)NC1=O)[C@@H](C)O (Octanoyl-[Dab]T[Dab][Dab][Dab][dF]L[Dab][Dab]A; lactam 4-C)	5
CC(C)C[C@@H]1NC(=O)[C@@H](Cc2ccccc2)NC(=O)[C@H](CCN)NC(=O)[C@@H](NC(=O)[C@H](CCN)NC(=O)[C@@H](NC(=O)[C@H](CCCNC(=N)N)NC(=O)[C@@H](CCCNC(=N)N)NC(=O)[C@@H](N)CCCNC(=N)N)[C@@H](C)O)CCNC(=O)[C@H]([C@@H](C)O)NC(=O)[C@H](CCN)NC(=O)[C@H](CCN)NC1=O [DESFA-[ARG-ARG-ARG1]POLYMYXIN B]	3

Param request: IC50 | system Lipopolysaccharide (LPS) | item CC(C)C[C@@H]1NC(=O)[C@@H](Cc2ccccc2)NC(=O)[C@H](CCN)NC(=O)[C@@H](NC(=O)[C@H](CCN)NC(=O)[C@@H](NC(=O)[C@H](CCCCN)NC(=O)O)[C@@H](C)O)CCNC(=O)[C@H]([C@@H](C)O)NC(=O)[C@H](CCN)NC(=O)[C@H](CCN)NC1=O [DESFA-[LYS1]POLYMYXIN B]
22
